Molecular target: Ba/F3 BCR-ABL1 T315M (Homo sapiens, UniProt P00519+P11274, T315M)
Construct: BCR (N-terminal fusion partner of the oncoprotein)
Assay: Cell growth inhibitory activity assay (CellTiter-Glo), Ba/F3 BCR-ABL1 T315M cells
Conditions: 72 h, CTG cell viability
Below: a set of entries, each annotated with reported IC50.
Measurement Name: IC50

Compound: C[C@@H]1COCc2nc3cc(C(=O)Nc4ccc(OC(F)(F)Cl)cc4)cc(-c4cnc5c(c4)-c4nn(-c6cnccn6)cc4C5)c3n21
Measurement Name: IC50
Value Reported: 5 to 50 nM

Compound: C[C@@H]1COCc2nc3cc(C(=O)Nc4ccc(OC(F)(F)Cl)cc4)cc(-c4cnc5c(c4)-c4nn(CC(F)(F)F)cc4C5)c3n21
Measurement Name: IC50
Value Reported: 50 to 1000 nM

Compound: C[C@@H]1COCc2nc3cc(C(=O)Nc4ccc(OC(F)(F)Cl)cc4)cc(-c4cnc5c(c4)-c4nn(S(C)(=O)=O)cc4C5)c3n21
Measurement Name: IC50
Value Reported: 50 to 1000 nM

Compound: CC(=O)N[C@@H]1CCC2c3cc(C(=O)Nc4ccc(OC(F)(F)Cl)cc4)cc(-c4cnc5c(c4)C(=O)N(C)C5)c3N(C(C)C)C21 (stereo partly drawn)
Measurement Name: IC50
Value Reported: 50 to 1000 nM

Compound: C[C@@H]1CCC(O)c2nc3cc(C(=O)Nc4ccc(OC(F)(F)Cl)cc4)cc(-c4cnc5c(c4)C(=O)N(C4CC4)C5)c3n21 (stereo partly drawn)
Measurement Name: IC50
Value Reported: 50 to 1000 nM

Compound: CC(=O)N[C@H]1CCC2c3cc(C(=O)Nc4ccc(OC(F)(F)Cl)cc4)cc(-c4cnc5c(c4)C(=O)N(C)C5)c3N(C(C)C)C21 (stereo partly drawn)
Measurement Name: IC50
Value Reported: > 1000 nM

Compound: C[C@@H]1COCc2nc3cc(C(=O)Nc4ccc(OC(F)(F)Cl)cc4)cc(-c4cnc5c(c4)-c4nn(-c6ncc(F)cn6)cc4C5)c3n21
Measurement Name: IC50
Value Reported: ≤ 5 nM

Compound: C[C@@H]1CCC(F)c2nc3cc(C(=O)Nc4ccc(OC(F)(F)Cl)cc4)cc(-c4cnc5c(c4)C(=O)N(C4CC4)C5)c3n21 (stereo partly drawn)
Measurement Name: IC50
Value Reported: 5 to 50 nM

Compound: C[C@@H]1CCS(=O)(=O)c2nc3cc(C(=O)Nc4ccc(OC(F)(F)Cl)cc4)cc(-c4cnc5c(c4)C(=O)N(C)C5)c3n21
Measurement Name: IC50
Value Reported: 50 to 1000 nM
